tested on: 201T; assay: relative viability (nuclei count vs DMSO), 5 days (fraction); higher = more cells survive; conditions: first compound 1.265 µM
endpoint: relative viability

[[record]]
compound = "Clc1ccc(Nc2nnc(Cc3ccncc3)c3ccccc23)cc1 [Vatalanib] + C[C@]1(O)C[C@@H](c2nc(-c3ccc4ccc(-c5ccccc5)nc4c3)c3c(N)nccn32)C1 [Linsitinib] (partner 1 µM)"
system_tested = "201T"
endpoint = "relative viability"
reported_result = 0.985


Recorded relative viability for COc1cc(N2CCC(C(N)=O)CC2)ccc1Nc1nc(N)c(Cl)c(Nc2ccccc2S(=O)(=O)C(C)C)n1 [HG-5-88-01] + CC(C)C[C@H](NC(=O)[C@H](Cc1ccccc1)NC(=O)c1cnccn1)B(O)O [Bortezomib] (partner 0.002 µM) , please?
1.06

Recorded relative viability for COc1cc(N2CCC(C(N)=O)CC2)ccc1Nc1nc(N)c(Cl)c(Nc2ccccc2S(=O)(=O)C(C)C)n1 [HG-5-88-01] + Cc1nc(Nc2ncc(C(=O)Nc3c(C)cccc3Cl)s2)cc(N2CCN(CCO)CC2)n1 [Dasatinib] (partner 0.075 µM) , please?
0.512

Recorded relative viability for COc1cc(N2CCC(C(N)=O)CC2)ccc1Nc1nc(N)c(Cl)c(Nc2ccccc2S(=O)(=O)C(C)C)n1 [HG-5-88-01] + Cc1cc(Nc2cc(N3CCN(C)CC3)nc(Sc3ccc(NC(=O)C4CC4)cc3)n2)n[nH]1 [Tozasertib] (partner 0.1 µM) , please?
0.871

* * *

test system: RERF-LC-KJ; test: relative viability (nuclei count vs DMSO), 5 days (fraction); higher = more cells survive; details: first compound 0.04 µM
Quick reference for relative viability among some compounds

[[record]]
compound = "COc1cc(N2CCC(C(N)=O)CC2)ccc1Nc1nc(N)c(Cl)c(Nc2ccccc2S(=O)(=O)C(C)C)n1 [HG-5-88-01] + Nc1nc2[nH]cc(CCc3ccc(C(=O)N[C@@H](CCC(=O)O)C(=O)O)cc3)c2c(=O)[nH]1 [Pemetrexed] (partner 0.2 µM)"
system_tested = "RERF-LC-KJ"
reported_result = 0.521

[[record]]
compound = "COc1cc(N2CCC(C(N)=O)CC2)ccc1Nc1nc(N)c(Cl)c(Nc2ccccc2S(=O)(=O)C(C)C)n1 [HG-5-88-01] + O=C(CCCCCCC(=O)Nc1ccccc1)NO [Vorinostat] (partner 1 µM)"
system_tested = "RERF-LC-KJ"
reported_result = 0.73

[[record]]
compound = "C[C@@H]1CN(CC(=O)Nc2ccc3c(c2)Cc2cccc(-c4cc(=O)cc(N5CCOCC5)o4)c2S3)C[C@H](C)O1 + CS(=O)(=O)N1CCN(Cc2cc3nc(-c4cccc5[nH]ncc45)nc(N4CCOCC4)c3s2)CC1 [Pictilisib] (partner 1 µM)"
system_tested = "RERF-LC-KJ"
reported_result = 0.591


Query compound follows.
Recorded relative viability for Clc1ccc(Nc2nnc(Cc3ccncc3)c3ccccc23)cc1 [Vatalanib] + CC(C)C[C@H](NC(=O)[C@H](Cc1ccccc1)NC(=O)c1cnccn1)B(O)O [Bortezomib] (partner 0.002 µM) , please?
1.05

* * *

test system: NCI-H460; assay: relative viability (nuclei count vs DMSO), 5 days (fraction); higher = more cells survive; conditions: first compound 0.4 µM
endpoint: relative viability
The answer should be written as a number, with no unit following it.

[[record]]
compound = "C[C@@H]1CN(CC(=O)Nc2ccc3c(c2)Cc2cccc(-c4cc(=O)cc(N5CCOCC5)o4)c2S3)C[C@H](C)O1 + Nc1ncn([C@H]2C[C@H](O)[C@@H](CO)O2)c(=O)n1 [Decitabine] (partner 2 µM)"
reported_result = 0.379

[[record]]
compound = "Clc1ccc(Nc2nnc(Cc3ccncc3)c3ccccc23)cc1 [Vatalanib] + CC(=O)c1c(C)c2cnc(Nc3ccc(N4CCNCC4)cn3)nc2n(C2CCCC2)c1=O [Palbociclib] (partner 0.5 µM)"
reported_result = 0.211


Query compound follows.
Observed relative viability on NCI-H460 for COc1cc(N2CCC(C(N)=O)CC2)ccc1Nc1nc(N)c(Cl)c(Nc2ccccc2S(=O)(=O)C(C)C)n1 [HG-5-88-01] + COc1cccc2cc(-c3nc([C@H]4CC[C@H](C(=O)O)CC4)n4ncnc(N)c34)[nH]c12 [OSI-027] (partner 0.5 µM) , please.
0.543
